Molecular target: 3-phosphoinositide-dependent protein kinase 1 (Homo sapiens)
Sequence (O15530 whole entry): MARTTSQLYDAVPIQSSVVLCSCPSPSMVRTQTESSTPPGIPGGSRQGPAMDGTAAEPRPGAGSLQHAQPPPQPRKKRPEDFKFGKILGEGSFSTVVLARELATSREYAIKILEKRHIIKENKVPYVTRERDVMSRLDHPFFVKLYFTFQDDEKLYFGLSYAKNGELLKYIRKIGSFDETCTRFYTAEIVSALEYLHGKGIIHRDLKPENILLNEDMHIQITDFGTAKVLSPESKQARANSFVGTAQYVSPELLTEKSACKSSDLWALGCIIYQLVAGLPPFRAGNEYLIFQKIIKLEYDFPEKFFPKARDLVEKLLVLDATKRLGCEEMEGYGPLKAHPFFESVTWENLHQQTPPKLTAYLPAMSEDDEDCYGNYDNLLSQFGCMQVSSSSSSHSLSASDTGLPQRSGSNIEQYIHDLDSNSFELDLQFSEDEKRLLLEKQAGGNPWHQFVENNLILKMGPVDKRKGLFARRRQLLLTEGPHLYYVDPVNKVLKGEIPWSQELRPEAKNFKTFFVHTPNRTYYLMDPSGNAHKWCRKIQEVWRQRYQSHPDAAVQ
Assay: Proliferation Assay
Quick reference for EC50 among some compounds
Report only the number, with the unit nM understood.

compound="CC(Nc1nc2c(C#CC3CC3)c[nH]c(=O)c2c2cc(-c3cn[nH]c3)ccc12)C(C)(C)C (stereo unspecified) [PDK1 inhibitor, 2]" unit=nM measured_number=9
compound="Cc1[nH]nc(-c2nc3cc4c[nH][nH]c4cc3n2)c1C(=O)NC1CCNCC1 [PDK1 inhibitor, 6]" unit=nM measured_number=12
compound=O=C(NCCCNc1nc(Nc2cccc(NC(=O)N3CCCC3)c2)ncc1I)c1cccs1 unit=nM measured_number=26
compound="COc1ccc(C#Cc2ccc3ncc4ncn(-c5ccc(CCN)cc5)c4c3c2)cc1 [PDK1 inhibitor, 4]" unit=nM measured_number=200
compound=Cc1[nH]nc2c1c(=O)n(CCCN)c1ccc(Cl)cc21 unit=nM measured_number=9

Please turn your attention to the following entry.
Field: EC50 (3-phosphoinositide-dependent protein kinase 1 (Homo sapiens)). Entry: CC(C)(C)c1nc2c3ccc(F)cc3c3c(=O)[nH]ccc3c2[nH]1 [Jak Inhibitor 1]
1
